The reported measurements were obtained from ChEMBL document CHEMBL3507680.

# test-name: Human HepG2 cell viability assay in 384 well format
# Assay type: toxicity, cell-based
# Set-up: dose 125 nL, time 70.5 hour; concentration not given beside the values
# test-parameters: HepG2 cells, read-out: Inhibition
Field: cytotoxicity at 70.5 h. Provide a value for each of the molecules that follow.
The response must be a number in % with no trailing unit.

Recorded cytotoxicity at 70.5 h of `O=C(Nc1ccccc1)[C@H]1C[C@@H]2CN(S(=O)(=O)c3ccccc3)C[C@H]1O2` , please.
-10.9

Recorded cytotoxicity at 70.5 h of `N#Cc1ccc(CNC(=O)C2=NN(c3ccccc3)C(=O)CN2)cc1` , please.
-7.68

Recorded cytotoxicity at 70.5 h of `CN(C)C(=O)CCS(=O)(=O)Cc1cc(Cl)c2c(c1)OCO2` , please.
-3.5

Recorded cytotoxicity at 70.5 h of `O=C(NCc1cccc(F)c1)Nc1ccn(CCN2CCOCC2)n1` , please.
-4.92

Recorded cytotoxicity at 70.5 h of `CC1=N[C@@]2(CC[C@@H]3CN(CC(C)C)C[C@@H]32)C(=O)N1C` , please.
-5.39

Recorded cytotoxicity at 70.5 h of `COCCN1CC[C@H](OC)[C@@H]1Cc1ccccc1` , please.
-0.421

Recorded cytotoxicity at 70.5 h of CCSc1ccc(C(=O)N2CCCCC2C(=O)NC(C)(C)C)cn1 (configuration not stated) , please.
-7.45

Recorded cytotoxicity at 70.5 h of `CC(C)c1cc(=O)[nH]c(-c2ccccc2CN2CCCCCC2)n1` , please.
-13.2

Recorded cytotoxicity at 70.5 h of `Cn1cnc(S(=O)(=O)N2CCN(CC3CC3)c3ncccc3C2)c1` , please.
-6.52

Recorded cytotoxicity at 70.5 h of Cc1cc(CN2CCN(CC(O)c3ccc4c(c3)OCO4)CC2)no1 (configuration not stated) , please.
-10.8

Recorded cytotoxicity at 70.5 h of Cc1nn(C)c2nc(NC(C)c3n[nH]c(=O)[nH]3)sc12 (configuration not stated) , please.
-10.8

Recorded cytotoxicity at 70.5 h of CC(=O)NCC(=O)NCC1(O)CCN(c2cnccn2)C1 (configuration not stated) , please.
15.9

Recorded cytotoxicity at 70.5 h of `Cc1occc1C(=O)N1C[C@@H]2CN(S(C)(=O)=O)CCO[C@@H]2C1` , please.
46.9

Recorded cytotoxicity at 70.5 h of `c1ccc2c(c1)CN(c1ncnc3c1CCNC3)CCO2` , please.
-5.38

Recorded cytotoxicity at 70.5 h of `COCc1noc(CN2C[C@H](NS(C)(=O)=O)[C@@H](C3CC3)C2)n1` , please.
-11

Recorded cytotoxicity at 70.5 h of `Cc1cc(C(=O)N2C[C@@H](CN3CCCCC3)[C@@H](CO)C2)ccc1O` , please.
-5.69

Recorded cytotoxicity at 70.5 h of `CN(C)C1CN(C(=O)Nc2cccc(OC(F)F)c2)C1` , please.
17.6

Recorded cytotoxicity at 70.5 h of `Cc1noc(C(C)C)c1C(=O)NCc1cccnc1` , please.
-16.6

Recorded cytotoxicity at 70.5 h of Cc1ccc(C2CCCCCN2CCNS(C)(=O)=O)o1 (configuration not stated) , please.
-5.05

Recorded cytotoxicity at 70.5 h of `CCn1cc(N2Cc3nc(N4CCCC4)ncc3C2=O)cn1` , please.
0.0553

Recorded cytotoxicity at 70.5 h of `CCN(CC)c1ccc(CNC(=O)N2CCC(C#N)CC2)cc1` , please.
-14.6

Recorded cytotoxicity at 70.5 h of CNc1cccc(C2CCCN(C(=O)c3cncs3)C2)n1 (configuration not stated) , please.
-4.52

Recorded cytotoxicity at 70.5 h of `O=S(=O)(NCCn1ccc(-c2ccccn2)n1)C1CC1` , please.
-0.0974

Recorded cytotoxicity at 70.5 h of `CCCS(=O)(=O)N1C[C@H]2C[C@H](C(=O)N3CCCC3)[C@@H](C1)O2` , please.
-3.05

Recorded cytotoxicity at 70.5 h of `CCCc1cc(C(=O)N(Cc2cccnc2)Cc2cccnc2)[nH]n1` , please.
-7.25

Recorded cytotoxicity at 70.5 h of CCc1nc(C)c(C(=O)N2CCCC(c3noc(C)n3)C2)s1 (configuration not stated) , please.
-6.51

Recorded cytotoxicity at 70.5 h of `CC(=O)N1CCCN(Cc2csc(-c3ncccn3)n2)CC1` , please.
-7.01

Recorded cytotoxicity at 70.5 h of `CCn1cc(S(=O)(=O)N2CCN(S(=O)(=O)c3ccc(Br)s3)CC2)cn1` , please.
-12

Recorded cytotoxicity at 70.5 h of CN(Cc1ccoc1)C(=O)C1CC(=O)N(Cc2ccncc2)C1 (configuration not stated) , please.
-8.62

Recorded cytotoxicity at 70.5 h of `O=C(Cc1csc(-c2ccco2)n1)N1CCSCC1` , please.
-11.7

Recorded cytotoxicity at 70.5 h of `c1ccc2[nH]c(C3CCN(Cc4nc(C5CC5)no4)CC3)cc2c1` , please.
-1.32

Recorded cytotoxicity at 70.5 h of `O=C(NCc1nncn1C1CC1)Nc1ccc(OC2CCC2)c(F)c1` , please.
-1.51
